# assay.target: UniProt:Q96PD7
# Sequence (Q96PD7 whole entry): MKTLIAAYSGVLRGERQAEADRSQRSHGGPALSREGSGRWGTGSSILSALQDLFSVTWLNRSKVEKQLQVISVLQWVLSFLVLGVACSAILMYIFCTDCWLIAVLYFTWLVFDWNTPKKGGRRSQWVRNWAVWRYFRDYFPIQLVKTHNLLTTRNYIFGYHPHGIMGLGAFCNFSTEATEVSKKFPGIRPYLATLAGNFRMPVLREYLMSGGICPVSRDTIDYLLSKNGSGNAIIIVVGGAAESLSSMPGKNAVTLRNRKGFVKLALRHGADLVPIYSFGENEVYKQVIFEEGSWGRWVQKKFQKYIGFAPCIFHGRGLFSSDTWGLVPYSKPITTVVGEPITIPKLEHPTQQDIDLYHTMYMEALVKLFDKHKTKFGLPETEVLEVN
# method.description: Measurement of inhibitory effect against DGAT2 enzyme activity (SPA, Phospholipid FlashPlate, [14C]-TG production)
# measurement.setup: recombinant human DGAT2 membrane protein from Sf-21 cells; inhibition of [14C]-TG production; 37° C.
recorded.endpoint: IC50 (µM)

molecule="CCOc1ccccc1Oc1cncc(-c2cncc(NC(=O)CCc3ccccc3)n2)c1 [Example 1]" recorded_endpoint=IC50 reported_measurement=0.035
molecule="CCOc1ccccc1Oc1cccc(-c2cncc(NC(=O)Cc3ccc(CC(C)(C)C(=O)O)cc3)n2)c1 [Example 15]" recorded_endpoint=IC50 reported_measurement=0.013
molecule="CCOc1ccccc1Oc1cncc(-c2cncc(NC(=O)CCc3ccc(CC(=O)O)cc3)n2)c1 [Example 4]" recorded_endpoint=IC50 reported_measurement=0.29
molecule="CCOc1cccnc1Oc1cccc(-c2cncc(Nc3cccc(-c4cccc(CC(C)(C)C(=O)O)c4)n3)n2)c1 [Example 32]" recorded_endpoint=IC50 reported_measurement=0.07
molecule="CCOc1ccccc1Oc1cccc(-c2cncc(NC(=O)CCc3ccccc3)n2)n1 [Example 22]" recorded_endpoint=IC50 reported_measurement=2.1
molecule="CCOc1ccccc1Oc1cncc(-c2cncc(Nc3nccc(N4CCC[C@@H](C(=O)O)C4)n3)n2)c1 [Example 8]" recorded_endpoint=IC50 reported_measurement=1.8
molecule="CCOc1ccccc1Oc1cccc(-c2cncc(NC(=O)Cc3ccc(OC(C)(C)C(=O)O)cc3)n2)c1 [Example 19]" recorded_endpoint=IC50 reported_measurement=0.43
molecule="CCOc1ccccc1Oc1cncc(-c2cncc(NC(=O)Cc3ccc(CC(=O)OC)cc3)n2)c1 [Example 2]" recorded_endpoint=IC50 reported_measurement=0.027
